Field IC50: reported value for UniProtKB Q02769; entries drawn from several documents.
Number in nM, nothing else.

Some solved entries appear below for comparison.
{"compound": "COc1cccc([C@H]2S[C@H](CC(=O)O)C(=O)N(CC(C)(C)C)c3ccc(Cl)cc32)c1OC", "unit_tag": "nM", "numeric_value": 9.3}
{"compound": "CC(O)C(O)CCCCC=CCCCCC(=O)OC1C(O)C2(CCC(C)C(O)C(C)CC=Cc3ccccc3)OC(C(=O)O)C(O)(C(=O)O)C1(C(=O)O)O2 (stereo not shown)", "unit_tag": "nM", "numeric_value": 5.6}
{"compound": "CC(C)=CCC/C(C)=C/CC/C(C)=C/CCC(C(=O)O)P(=O)(O)O (stereo not shown)", "unit_tag": "nM", "numeric_value": 180}
{"compound": "C=C(CCC12OC(C(=O)O)C(O)(C(=O)O)C(C(=O)O)(O1)C(OC(=O)/C=C/C(C)CC(C)CC)C2O)C(OC(C)=O)C(C)Cc1ccsc1 (stereo not shown)", "unit_tag": "nM", "numeric_value": 0.201}

For record c1ccc(CCCSc2nsnc2[C@H]2CN3CCC[C@@H]2C3)cc1 (single isomer, unassigned) the listed IC50 is 5100

For record CC=CCCCCC=CCCCCC(=O)OC1C(O)C2(CCC(C)C(O)C(C)CC=Cc3ccccc3)OC(C(=O)OC)C(O)(C(=O)OC)C1(C(=O)OC)O2 (stereo not shown) the listed IC50 is 5000

For record "CO[C@H]1C(=O)N(c2ccc(C#CC3(N)CCCCC3)c(Cc3ccccc3)n2)C[C@H]1O" the listed IC50 is 0.78

For record CC(=O)OC(CCCC12OC(C(=O)O)C(O)(C(=O)O)C(C(=O)O)(O1)C(OC(=O)CCC=CC(C)CCCc1ccccc1)C2O)C(C)Cc1ccccc1 (stereo not shown) the listed IC50 is 9

For record C=C(CCC12OC3C(=O)OC3(C(=O)O)C(C(=O)O)(O1)C(OC(=O)/C=C/C(C)CC(C)CC)C2O)C(OC(C)=O)C(C)Cc1ccccc1 (stereo not shown) the listed IC50 is 0.4

---

Field log10(IC50): reported value for Squalene synthase (Rattus norvegicus, UniProt Q02769); entries drawn from several documents.
All values: base-10 log of IC50 in nM.

Some solved entries appear below for comparison.
{"compound": "CC(C)CN1C(=O)[C@@H](CC(=O)O)S[C@H](c2ccccc2Cl)c2cc(Cl)ccc21 (relative stereo)", "study_system": "Squalene synthase (Rattus norvegicus, UniProt Q02769)", "numeric_value": 1.71}
{"compound": "O=P(O)(O)C(O)(CCN1CCC2(CCCCC2)CC1)P(=O)(O)O", "study_system": "Squalene synthase (Rattus norvegicus, UniProt Q02769)", "numeric_value": 2.59}
{"compound": "COc1ccccc1[C@H]1O[C@H](CC(=O)O)C(=O)N(CC(C)C)c2sc(Cl)cc21 (relative stereo)", "study_system": "Squalene synthase (Rattus norvegicus, UniProt Q02769)", "numeric_value": 2.69}

# log10(IC50) measured on Squalene synthase (Rattus norvegicus, UniProt Q02769) for item CC(C)=CCC/C(C)=C/CC/C(C)=C/CC(C(=O)O)P(=O)(O)O (stereo not drawn) = 3.20

# log10(IC50) measured on Squalene synthase (Rattus norvegicus, UniProt Q02769) for item "CC(C)=CCC/C(C)=C/CN(C)C(=O)OCCCC(P(=O)(O)O)P(=O)(O)O" = -0.09

# log10(IC50) measured on Squalene synthase (Rattus norvegicus, UniProt Q02769) for item CC(C)(C)CN1C(=O)[C@@H](CC(=O)O)O[C@H](c2ccccc2Cl)c2cc(Cl)sc21 (relative stereo) = 2.23

# log10(IC50) measured on Squalene synthase (Rattus norvegicus, UniProt Q02769) for item COc1ccccc1[C@H]1O[C@H](CC(=O)O)C(=O)N(CC(C)(C)C)c2sc(Cl)cc21 (relative stereo) = 1.94

# log10(IC50) measured on Squalene synthase (Rattus norvegicus, UniProt Q02769) for item C=C(CC[C@@]12C[C@@H](OC(=O)/C=C/C(C)CC(C)CC)[C@@](C(=O)O)(O1)[C@](O)(C(=O)O)[C@@H](C(=O)O)O2)C(OC(C)=O)C(C)Cc1ccccc1 (stereo partly drawn) = -0.02
